Target: Peroxisome proliferator-activated receptor alpha (Mus musculus, UniProt P23204)
Sequence (P23204 whole entry, the tested form may be a part): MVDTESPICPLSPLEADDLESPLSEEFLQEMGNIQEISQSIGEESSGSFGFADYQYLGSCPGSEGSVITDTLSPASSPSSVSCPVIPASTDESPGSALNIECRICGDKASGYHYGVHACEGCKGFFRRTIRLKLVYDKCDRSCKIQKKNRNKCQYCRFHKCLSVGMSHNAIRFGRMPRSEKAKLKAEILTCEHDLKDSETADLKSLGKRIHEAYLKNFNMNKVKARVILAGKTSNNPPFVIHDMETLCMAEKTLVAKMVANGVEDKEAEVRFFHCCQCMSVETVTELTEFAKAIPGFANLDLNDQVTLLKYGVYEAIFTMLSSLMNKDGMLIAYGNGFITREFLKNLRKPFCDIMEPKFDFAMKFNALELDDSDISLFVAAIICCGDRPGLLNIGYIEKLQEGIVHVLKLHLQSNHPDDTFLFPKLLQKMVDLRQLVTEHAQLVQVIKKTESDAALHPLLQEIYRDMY
Experiment: Agonist activity at 3' GAL4 DNA binding domain fused mouse PPARalpha LBD expressed in U-2 OS cells after 40 hrs by luciferase reporter gene assay
recordedMetric: EC50 (nM)
Give just the numeric value; nM need not be written.

Need EC50 of CCO[C@@H](Cc1ccc(OCCc2ccc(OS(C)(=O)=O)cc2)cc1)C(=O)O , thanks.
1700

###

Molecular target: Peroxisome proliferator-activated receptor delta (Homo sapiens)
Assay: Agonist activity at GAL4N fused human PPARdelta LBD expressed in HEK293 cells co-expressing TK-MH100x4-Luc after 24 hrs by luciferase reporter gene assay relative to GW501516
Type: cell-based
recordedMetric: Efficacy

Name the reported Efficacy value associated with the compound CC(=O)NC(C)c1nc(-c2ccc(OCCCOc3ccc(Oc4ccccc4)cc3)cc2)no1 (stereo unspecified)
2 to 11%

Same thing, different compound: CC(=O)NC(C)c1nc(-c2ccc(OCCc3ccc(OS(C)(=O)=O)cc3)cc2)no1 (stereo unspecified)
7 to 18%

And CC(=O)NC(C)c1nc(-c2ccc(OCC=C(c3ccc(Br)cc3)c3ccc(Br)cc3)cc2)no1 (stereo unspecified) ?
5 to 14%

Then CC(=O)N[C@@H](C)c1nc(-c2ccc(OCCc3ccc(OS(C)(=O)=O)cc3)cc2)no1 ?
4 to 19%

Now this one: CC(=O)NC(C)c1nc(-c2ccc(OCCN3c4ccccc4Oc4ccccc43)cc2)no1 (stereo unspecified)
2 to 9%

Next entry: CCOC(Cc1ccc(Oc2ccc(OCc3ccccc3)cc2)cc1)C(=O)O (stereo unspecified)
16 to 45%
